This collection of values is drawn from ChEMBL document CHEMBL1124378.

Answer each item with its documented IC50.
TGT: Muscarinic acetylcholine receptor
ASSAY COMMENT: Compound was evaluated for the inhibition of [3H]QNB binding to Muscarinic acetylcholine receptor from male Olac rat brain.

Please review the entries below; each comes with its answer.
> print(dat)
                         chemical.structure  observed.value
1       CN1CCN(C2=Nc3ccccc3Nc3nn(C)cc32)CC1           38 µM
2  CN1CCN(C2=Nc3cc(S(C)(=O)=O)ccc3Nc3nn(C)cc32)CC1        > 100 µM

Batch lookup, IC50 per entry.
1. Cc1nn(C)c2c1Nc1ccc(F)cc1N=C2N1CCN(C)CC1
2. CN1CCN(C2=Nc3ccc(Cl)cc3Nc3nn(C)cc32)CC1
3. Cn1cc2c(n1)Nc1ccc(F)cc1N=C2N1CCN(CCO)CC1

## Output
["> 100 µM", "> 100 µM", "> 100 µM"]

Can you give me IC50 for all of these, one by one?
1. CCCn1cc2c(n1)Nc1ccc(F)cc1N=C2N1CCN(C)CC1
2. CCn1cc2c(n1)Nc1cc(Cl)c(Cl)cc1N=C2N1CCN(C)CC1
3. Cc1ccc2c(c1)Nc1nn(C)cc1C(N1CCN(C)CC1)=N2
4. Cn1cc2c(n1)Nc1ccc(F)cc1N=C2N1CCN(Cc2ccccc2)CC1
5. CN1CCN(C2=Nc3c(Cl)cccc3Nc3nn(C)cc32)CC1
6. Cn1cc2c(n1)Nc1ccc(F)cc1N=C2N1CCOCC1

## Output
1: 16 µM; 2: > 1 µM; 3: > 100 µM; 4: > 100 µM; 5: > 100 µM; 6: > 100 µM
